test system: Bacillus pumilus; assay: Ratio of MBC to MIC against penicillin-susceptible Bacillus pumilus CMCC63202; format: functional
reported-endpoint: Ratio
Note: the reply should be a number with no unit written.

The examples below pair each entry with its known result.
Cc1ccc2c[n+](C)c3ccc(-c4ccc5ccn(Cc6ccccc6)c5c4)cc3c2c1.[Cl-] ... 16
Cc1ccc2c[n+](C)c3ccc(-c4ccc5ccn(Cc6ccc(OC(F)(F)F)cc6)c5c4)cc3c2c1.[Cl-] ... 8
Cc1ccc2c[n+](C)c3ccc(-c4ccc5ccn(Cc6ccc(C(F)(F)F)cc6)c5c4)cc3c2c1.[Cl-] ... 8

--- query ---
Query: Given the compound C[n+]1cc2c3c(ccc2c2ccc4cc5c(cc4c21)OCO5)OCO3 , what is its reported Ratio?
Result: 8
